tested on: Staphylococcus aureus; assay: Antibacterial activity against methicillin-resistant Staphylococcus aureus 09-13 by agar dilution method; format: functional
Measurement Label: MIC (µg/mL)
One number for each entry, in µg/mL.

Molecule Smiles	MIC (µg/mL)
N=C(NC1CCCCC1)c1ccc2cc(-c3ccc(Oc4ccc(-c5cc6ccc(C(=N)NC7CCCCC7)cc6[nH]5)cc4)cc3)[nH]c2c1	2
N=C(c1ccc2cc(-c3ccc(Oc4ccc(-c5cc6ccc(C(=N)N7CCCCC7)cc6[nH]5)cc4)cc3)[nH]c2c1)N1CCCCC1	16
CCNC(=N)c1ccc2cc(-c3ccc(Oc4ccc(-c5cc6ccc(C(=N)NCC)cc6[nH]5)cc4)cc3)[nH]c2c1	1
N=C(c1ccc2cc(-c3ccc(Oc4ccc(-c5cc6ccc(C(=N)N7CCC7)cc6[nH]5)cc4)cc3)[nH]c2c1)N1CCC1	0.5
CNC(=N)c1ccc2cc(-c3ccc(Oc4ccc(-c5cc6ccc(C(=N)NC)cc6[nH]5)cc4)cc3)[nH]c2c1	0.5

Return reported MIC values for all items listed beneath this line.
1. CN(C)C(=N)c1ccc2cc(-c3ccc(Oc4ccc(-c5cc6ccc(C(=N)N(C)C)cc6[nH]5)cc4)cc3)[nH]c2c1
2. N=C(c1ccc2cc(-c3ccc(Oc4ccc(-c5cc6ccc(C(=N)N7CCCC7)cc6[nH]5)cc4)cc3)[nH]c2c1)N1CCCC1

0.25
1

====

I'd appreciate it if you could supply log10 MIC values for the items below.
tested on: Enterococcus faecium; experiment: Antibacterial activity against vancomycin-sensitive Enterococcus faecium 09-10 by agar dilution method; type: functional
Log scale reminder: MIC in µg/mL, then log10 taken.

Molecule	log10 MIC
CCNC(=N)c1ccc2cc(-c3ccc(Oc4ccc(-c5cc6ccc(C(=N)NCC)cc6[nH]5)cc4)cc3)[nH]c2c1	1.20
N=C(NC1CCC1)c1ccc2cc(-c3ccc(Oc4ccc(-c5cc6ccc(C(=N)NC7CCC7)cc6[nH]5)cc4)cc3)[nH]c2c1	1.81
N=C(NC1CC1)c1ccc2cc(-c3ccc(Oc4ccc(-c5cc6ccc(C(=N)NC7CC7)cc6[nH]5)cc4)cc3)[nH]c2c1	0.90
N=C(c1ccc2cc(-c3ccc(Oc4ccc(-c5cc6ccc(C(=N)N7CCC(N8CCCC8)CC7)cc6[nH]5)cc4)cc3)[nH]c2c1)N1CCC(N2CCCC2)CC1	0.90

Would you be so kind as to report log10 MIC for each listed record?
1. N=C(c1ccc2cc(-c3ccc(Oc4ccc(-c5cc6ccc(C(=N)N7CCOCC7)cc6[nH]5)cc4)cc3)[nH]c2c1)N1CCOCC1
2. N=C(NC1CCCCC1)c1ccc2cc(-c3ccc(Oc4ccc(-c5cc6ccc(C(=N)NC7CCCCC7)cc6[nH]5)cc4)cc3)[nH]c2c1
3. CCC(CC)NC(=N)c1ccc2cc(-c3ccc(Oc4ccc(-c5cc6ccc(C(=N)NC(CC)CC)cc6[nH]5)cc4)cc3)[nH]c2c1
4. CCCNC(=N)c1ccc2cc(-c3ccc(Oc4ccc(-c5cc6ccc(C(=N)NCCC)cc6[nH]5)cc4)cc3)[nH]c2c1
5. CNC(=N)c1ccc2cc(-c3ccc(Oc4ccc(-c5cc6ccc(C(=N)NC)cc6[nH]5)cc4)cc3)[nH]c2c1
6. CCC(C)NC(=N)c1ccc2cc(-c3ccc(Oc4ccc(-c5cc6ccc(C(=N)NC(C)CC)cc6[nH]5)cc4)cc3)[nH]c2c1 (centres undefined)

1: 0.60; 2: 0.90; 3: 0.60; 4: 1.20; 5: 0.00; 6: 0.90

Batch request: log10 MIC per item, same order as input.
1. CC1CC(C)CN(C(=N)c2ccc3cc(-c4ccc(Oc5ccc(-c6cc7ccc(C(=N)N8CC(C)CC(C)C8)cc7[nH]6)cc5)cc4)[nH]c3c2)C1 (centres undefined)
2. C[C@H]1COc2c(N3CCN(C)CC3)c(F)cc3c(=O)c(C(=O)O)cn1c23.C[C@H]1COc2c(N3CCN(C)CC3)c(F)cc3c(=O)c(C(=O)O)cn1c23.O [LEVOFLOXACIN]

1. 2.11
2. 1.81

====

tested on: Escherichia coli; assay: Antibacterial activity against extended-spectrum beta-lactamase-positive Escherichia coli 09-1 by agar dilution method; type: functional
For each entry below, report its MIC value.

Molecule Smiles	MIC
N=C(NC1CCCC1)c1ccc2cc(-c3ccc(Oc4ccc(-c5cc6ccc(C(=N)NC7CCCC7)cc6[nH]5)cc4)cc3)[nH]c2c1	> 128 mg/L
N=C(c1ccc2cc(-c3ccc(Oc4ccc(-c5cc6ccc(C(=N)N7CCCC7)cc6[nH]5)cc4)cc3)[nH]c2c1)N1CCCC1	64 mg/L
c1cc(-c2cc3ccc(C4=NCCN4)cc3[nH]2)ccc1Oc1ccc(-c2cc3ccc(C4=NCCN4)cc3[nH]2)cc1	> 128 mg/L

Turning now to a further compound:
Determine from records and report MIC for "CC(C)NC(=N)c1ccc2cc(-c3ccc(Oc4ccc(-c5cc6ccc(C(=N)NC(C)C)cc6[nH]5)cc4)cc3)[nH]c2c1"
32 mg/L

====

Give measured MIC for each item. Keep answers brief.
test system: Enterococcus faecalis; experiment: Antibacterial activity against vancomycin-resistant Enterococcus faecalis 09-9 by agar dilution method; assay type: functional
Numbers only, in µg/mL.

Molecule	Readout Units	Test Value
CCC(CC)NC(=N)c1ccc2cc(-c3ccc(Oc4ccc(-c5cc6ccc(C(=N)NC(CC)CC)cc6[nH]5)cc4)cc3)[nH]c2c1	µg/mL	8
CC1CC(C)CN(C(=N)c2ccc3cc(-c4ccc(Oc5ccc(-c6cc7ccc(C(=N)N8CC(C)CC(C)C8)cc7[nH]6)cc5)cc4)[nH]c3c2)C1 (configuration not stated)	µg/mL	64
CC1CCN(C(=N)c2ccc3cc(-c4ccc(Oc5ccc(-c6cc7ccc(C(=N)N8CCC(C)CC8)cc7[nH]6)cc5)cc4)[nH]c3c2)CC1	µg/mL	128
N=C(c1ccc2cc(-c3ccc(Oc4ccc(-c5cc6ccc(C(=N)N7CCC(N8CCCC8)CC7)cc6[nH]5)cc4)cc3)[nH]c2c1)N1CCC(N2CCCC2)CC1	µg/mL	16
N=C(NC1CCC1)c1ccc2cc(-c3ccc(Oc4ccc(-c5cc6ccc(C(=N)NC7CCC7)cc6[nH]5)cc4)cc3)[nH]c2c1	µg/mL	64
N=C(c1ccc2cc(-c3ccc(Oc4ccc(-c5cc6ccc(C(=N)N7CCC7)cc6[nH]5)cc4)cc3)[nH]c2c1)N1CCC1	µg/mL	8

From here, focus on the item given below.
Return reported MIC. Input molecule: "CNC(=N)c1ccc2cc(-c3ccc(Oc4ccc(-c5cc6ccc(C(=N)NC)cc6[nH]5)cc4)cc3)[nH]c2c1"
1

====

test system: Proteus vulgaris; assay: Antibacterial activity against Proteus vulgaris ATCC 29905 by agar dilution method; type: functional
Measurement Label: MIC (µg/mL)
One number for each entry, in µg/mL.

In the examples that follow, each entry is paired with its recorded MIC.
Molecule Smiles	Assayed Target	MIC, µg/mL
CCC(CC)NC(=N)c1ccc2cc(-c3ccc(Oc4ccc(-c5cc6ccc(C(=N)NC(CC)CC)cc6[nH]5)cc4)cc3)[nH]c2c1	Proteus vulgaris	16
CC(C)NC(=N)c1ccc2cc(-c3ccc(Oc4ccc(-c5cc6ccc(C(=N)NC(C)C)cc6[nH]5)cc4)cc3)[nH]c2c1	Proteus vulgaris	64
N=C(c1ccc2cc(-c3ccc(Oc4ccc(-c5cc6ccc(C(=N)N7CCC7)cc6[nH]5)cc4)cc3)[nH]c2c1)N1CCC1	Proteus vulgaris	128

Shifting focus to the compound that follows.
For the compound "N=C(c1ccc2cc(-c3ccc(Oc4ccc(-c5cc6ccc(C(=N)N7CCCC7)cc6[nH]5)cc4)cc3)[nH]c2c1)N1CCCC1" , give its measured MIC value.
64

====

test system: Enterococcus faecalis; assay: Antibacterial activity against vancomycin-resistant Enterococcus faecalis ATCC 51299 by agar dilution method; format: functional
Consider the following compounds; for each one, report its MIC.
Give bare numbers, in µg/mL.

Compound	Assayed Target	Readout Units	MIC
N=C(NC1CCCCC1)c1ccc2cc(-c3ccc(Oc4ccc(-c5cc6ccc(C(=N)NC7CCCCC7)cc6[nH]5)cc4)cc3)[nH]c2c1	Enterococcus faecalis	µg/mL	4
CC1CCN(C(=N)c2ccc3cc(-c4ccc(Oc5ccc(-c6cc7ccc(C(=N)N8CCC(C)CC8)cc7[nH]6)cc5)cc4)[nH]c3c2)CC1	Enterococcus faecalis	µg/mL	128
N=C(c1ccc2cc(-c3ccc(Oc4ccc(-c5cc6ccc(C(=N)N7CCOCC7)cc6[nH]5)cc4)cc3)[nH]c2c1)N1CCOCC1	Enterococcus faecalis	µg/mL	4
N=C(NC1CC1)c1ccc2cc(-c3ccc(Oc4ccc(-c5cc6ccc(C(=N)NC7CC7)cc6[nH]5)cc4)cc3)[nH]c2c1	Enterococcus faecalis	µg/mL	4
N=C(c1ccc2cc(-c3ccc(Oc4ccc(-c5cc6ccc(C(=N)N7CCCC7)cc6[nH]5)cc4)cc3)[nH]c2c1)N1CCCC1	Enterococcus faecalis	µg/mL	8

Please supply MIC for each of the following items, keeping them in order.
1. N=C(NC1CCCC1)c1ccc2cc(-c3ccc(Oc4ccc(-c5cc6ccc(C(=N)NC7CCCC7)cc6[nH]5)cc4)cc3)[nH]c2c1
2. CCC(C)NC(=N)c1ccc2cc(-c3ccc(Oc4ccc(-c5cc6ccc(C(=N)NC(C)CC)cc6[nH]5)cc4)cc3)[nH]c2c1 (centres undefined)
3. C[C@H]1COc2c(N3CCN(C)CC3)c(F)cc3c(=O)c(C(=O)O)cn1c23.C[C@H]1COc2c(N3CCN(C)CC3)c(F)cc3c(=O)c(C(=O)O)cn1c23.O

1. 128
2. 2
3. 0.5
